Catalogue of Slope, concentration in white hair versus pigmented hair readings, one per entry.
Experiment: Influence of hair pigmentation: concentration in white hair versus pigmented hair
Format: in vivo, rat
Conditions: slope close to 1 = poor influence of pigmentation
Reply with the value as a number alone.

compound=Cl[C@H]1[C@H](Cl)[C@@H](Cl)[C@H](Cl)[C@@H](Cl)[C@@H]1Cl number=1.021
compound=CC1(C)Cc2cccc(O)c2O1 number=1.109
compound=Oc1nc(Cl)c(Cl)cc1Cl number=0.435
compound="O=S1OC[C@@H]2[C@H](CO1)[C@]1(Cl)C(Cl)=C(Cl)[C@]2(Cl)C1(Cl)Cl (stereo partly drawn) [β-Endosulfan, β-endosulfan]" number=0.965

// Input: `Clc1ccc(C(c2ccc(Cl)cc2)C(Cl)Cl)cc1` . Output its Slope, concentration in white hair versus pigmented hair only.
0.673

// Input: `ClC1=C(Cl)[C@]2(Cl)[C@@H]3[C@@H]4C[C@@H]([C@H]5O[C@@H]45)[C@@H]3[C@@]1(Cl)C2(Cl)Cl` . Output its Slope, concentration in white hair versus pigmented hair only.
1.000

// Input: CCOP(=O)(O)OCC [DEP, diethyl phosphate] . Output its Slope, concentration in white hair versus pigmented hair only.
0.892

// Input: `ClC(Cl)=C(c1ccc(Cl)cc1)c1ccc(Cl)cc1` . Output its Slope, concentration in white hair versus pigmented hair only.
1.287

// Input: `Cl[C@H]1[C@H](Cl)[C@@H](Cl)[C@@H](Cl)[C@H](Cl)[C@H]1Cl` . Output its Slope, concentration in white hair versus pigmented hair only.
0.969

// Input: `O=C(O)c1cccc(Oc2ccccc2)c1` . Output its Slope, concentration in white hair versus pigmented hair only.
1.070

// Input: `O=C(Nc1ccc(F)cc1F)c1cccnc1Oc1cccc(C(F)(F)F)c1` . Output its Slope, concentration in white hair versus pigmented hair only.
0.937

// Input: CC1(C)C(C=C(Cl)Cl)C1C(=O)OC(C#N)c1cccc(Oc2ccccc2)c1 (centres unmarked) . Output its Slope, concentration in white hair versus pigmented hair only.
0.495

// Input: CCCC1COC(Cn2cncn2)(c2ccc(Cl)cc2Cl)O1 (centres unmarked) . Output its Slope, concentration in white hair versus pigmented hair only.
0.825

// Input: CC1(C)C(C=C(Cl)Cl)C1C(=O)O (centres unmarked) . Output its Slope, concentration in white hair versus pigmented hair only.
0.498

// Input: `CCCN(CCC)c1c([N+](=O)[O-])cc(C(F)(F)F)cc1[N+](=O)[O-]` . Output its Slope, concentration in white hair versus pigmented hair only.
0.688

// Input: `CC(C)Oc1ccccc1O` . Output its Slope, concentration in white hair versus pigmented hair only.
0.692

// Input: `N#Cc1nn(-c2c(Cl)cc(C(F)(F)F)cc2Cl)c(N)c1S(=O)(=O)C(F)(F)F` . Output its Slope, concentration in white hair versus pigmented hair only.
1.114
